All values here come from ChEMBL document CHEMBL1122105.

Assay: Half life was determined
Format: ADME
Settings: rat
quantity: half-life (min)
Your answer is read as min, so omit the unit and give the number.

Data request: Quick one: give measured half-life for CC(=O)N=C1C=CC(=O)C=C1
Data returned: 11
